target: Follistatin (Homo sapiens) (UniProt P19883); assay: follistatin binders on small-molecule microarrays, primary screen, biochemical, small-molecule microarray, 635/667 nm fluorescence (AID 1132); details: FST binding, 635 nm fluorescence, higher = more signal
Sequence (P19883 whole entry, looked up): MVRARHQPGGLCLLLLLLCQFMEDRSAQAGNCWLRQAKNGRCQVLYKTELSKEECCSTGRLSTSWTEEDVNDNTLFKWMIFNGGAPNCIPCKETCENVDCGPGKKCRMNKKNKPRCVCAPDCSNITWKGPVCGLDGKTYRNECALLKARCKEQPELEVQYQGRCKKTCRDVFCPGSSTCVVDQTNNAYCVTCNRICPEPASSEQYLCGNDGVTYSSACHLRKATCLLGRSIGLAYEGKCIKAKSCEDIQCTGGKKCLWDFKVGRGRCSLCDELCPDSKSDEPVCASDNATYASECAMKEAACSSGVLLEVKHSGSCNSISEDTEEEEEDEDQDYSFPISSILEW
If the reported composite z-score equals or exceeds 0.1, assign class 1. If not, assign class 0.

C[C@]1(C(=O)NCCN2CCOCC2)c2ccccc2C(=O)N(Cc2ccc(OC(F)(F)F)cc2)[C@H]1c1ccc(CO)cc1	class 1
CC(C)C(O)C1C=CC2C(=O)N(C)C(=O)C2N1N(c1ccccc1)c1ccccc1 (stereo unspecified)	class 0
CCN(CC)c1ccc(N2CC=CC34O[C@@H]5/C=C\CCC(C)OC(=O)C5[C@H]3C(=O)N(CCO)[C@@H]4C2=O)cc1 (stereo partly specified)	class 0

*Q* Would you say C=CCN1C(=O)[C@@]2(O[C@@H](CCO)[C@H]([Si](C)(C)c3ccc(OC)cc3)[C@H]2C)c2cc(N3C(=O)c4ccccc4Oc4ccccc43)ccc21 shows composite z-score at minimum 0.1?
*A* class 1

*Q* Is the recorded value of composite z-score equal to or greater than 0.1 for this compound? C=CCOC(=O)[C@@H]1[C@H]2C(=O)O[C@H](c3ccccc3)[C@H](c3ccccc3)N2[C@H](c2ccc(OCCOC(=O)[C@H]3C[C@H]4C(=O)N[C@@H](CCCCNC(C)=O)C(=O)N4[C@H]3c3cccc(OCCO)c3)cc2)[C@@]12C(=O)Nc1ccc(I)cc12
*A* class 1

*Q* Reported composite z-score reaches at least 0.1 for COc1ccc([Si](C)(C)[C@H]2[C@H](CC(=O)N3Cc4ccccc4C[C@H]3CO)O[C@@]3(C(=O)N(Cc4cccc(N5CCCCC5=O)c4)c4ccccc43)[C@@H]2C)cc1 ?
*A* class 1
